PROCEDURE TEXT: Drug repurposing screens with cells derived from glioblastoma tumor samples (AID 1345199); further: on the % scale 0 is the no-effect control and ±100 the full control effect; nearly all actives have a fitted effect of over 40% in size
TEST SETTINGS: GBM patient neurospheres viability, ATP luminescence, 48 h; at 45.9 µM (top of the series); tumour line D
Results filed as inconclusive are left out.
Measured activity, negative = cell killing of individual entries
Just the number in %, nothing appended.

C=CCN1CC[C@]23c4c5ccc(O)c4O[C@H]2[C@@H](O)C=C[C@H]3[C@H]1C5
3.8
C#CC(C)(O)CC (stereo not given)
-11.4

Now for a further molecule.
QUERY: Fill blank: measured activity, negative = cell killing of the molecule `COc1ccc2c3c1O[C@H]1C(=O)CC[C@H]4[C@@H](C2)N(C)CC[C@]314` is ____.
RESULT: -23.5

* * *

ASSAY SYSTEM: Bile acid receptor (Homo sapiens)
PROCEDURE TEXT: qHTS assay for small molecule agonists of farnesoid X receptor signaling (AID 588527);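 further: 0% = vehicle basal and 100% = reference agonist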
TEST SETTINGS: HEK293T FXR-UAS-bla, beta-lactamase ratio, 16 h; stronger effect = higher value
Records with an inconclusive call do not appear.
The following compounds are listed with their measured activation values.
Numbers only here, please. The scale is %.

Illustrative cases are given below, each with its answer.
O=C(NCNC(=O)NC1C(=O)NC(=O)N1CO)NC1C(=O)NC(=O)N1CO (stereo not given)
1.1
C[C@H]1CC[C@@H]2[C@@H](C)[C@H]3[C@H](C[C@H]4[C@@H]5CC=C6CC(O[C@@H]7O[C@H](CO)[C@H](O)[C@H](O[C@@H]8O[C@H](CO)[C@@H](O)[C@H](O)[C@H]8O)[C@H]7O[C@H]7O[C@@H](C)[C@H](O)[C@@H](O)[C@H]7O)CC[C@]6(C)[C@H]5CC[C@]34C)N2C1 (stereo not given in full)
11.7

QUERY: For `Clc1ccccc1Cl` , what is its reported activation?
RESULT: -2.33

QUERY: For `NNC(N)=O` , what is its reported activation?
RESULT: -1.54

QUERY: Report activation for COCC(C)N(C(=O)CCl)c1c(C)csc1C (stereo not given) please.
RESULT: 0.208

* * *

PROCEDURE TEXT: qHTS for differential inhibitors of proliferation of Plasmodium falciparum line W2 (AID 1883);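 further: parasites grown with compound for 72 h before lysis and staining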
TEST SETTINGS: Plasmodium falciparum W2 proliferation inhibition; series mostly up to 28.7 µM
Inconclusive results are not listed. Active and inactive are the calls of the source. Calls come from the whole dose curve; as a rule, active = well fitted curve in the direction sought with a large enough effect; inconclusive = small, poorly fitted or top-dose-only effect, or another doubt; inactive = no such curve, though single readings can be large or run the other way.
Entry note: the call must match one of active, inactive

A selection of reference data follows.
CN1CC[C@@]2(C)c3cc(O)ccc3N(C)C12 (stereo partly drawn)
active
CN1C2CCC1CC(OC(c1ccccc1)c1ccc(Cl)cc1)C2 (stereo not drawn)
active
c1ccc2cc(CC3=NCCN3)ccc2c1
active
CCCN(CCC)C1Cc2cc(OC)c(OC)cc2C1
inactive
c1ccc2c(N3CCNCC3)cccc2c1
active
COC(=O)N1CCN(C(=O)Cc2ccc(Cl)c(Cl)c2)C(CN2CCCC2)C1 (stereo not drawn)
active
O=C1CC[C@@]2(O)C3Cc4ccc(O)c5c4C2(CCN3CC2CC2)[C@H]1O5 (stereo partly drawn)
active
c1ccc2c(c1)[I+]c1ccccc1-2
active

QUERY: Field: outcome | Entry: `CCCCCCC(C)(C)c1ccc([C@@H]2C[C@H](O)CC[C@H]2CCCO)c(O)c1`
RESULT: active

QUERY: Tell me the recorded outcome of this test for `NNC(N)=O` .
RESULT: inactive

QUERY: Tell me the assay call for NC(=O)c1ccc(OCC(O)CN2CC=C(c3ccc(F)cc3)CC2)cc1 (stereo not drawn) please.
RESULT: active

QUERY: Could you check what this test reported for CC(N)c1cccc(Cl)c1Cl (stereo not drawn) ?
RESULT: active

QUERY: Answer briefly: the call reported for `NNC(=O)c1ccc(O)cc1` in this assay.
RESULT: inactive
